Quick reference: R M ^0 of the listed items.
assay: RP-TLC lipophilicity, silica gel C8, methanol-water; format: physicochemical; conditions: RP-TLC silica gel C8, methanol-water 30 to 70% (v/v), intercept of Soczewiński–Wachtmeister equation
parameter-measured: R M ^0

compound: CCn1cc(C(=O)O)c(=O)c2cc(F)c(N3CCNCC3)nc21 [Compound 23, enoxacin, reference compound]
reported: 2.45
//
compound: CCn1cc(C(=O)O)c(=O)c2cc(F)c(N3CC[N+]4(CC3)CN3C(C)=CC(C)=C(C(=O)O)C3=N4)nc21.[Cl-]
reported: 1.59
//
compound: C[C@@H]1CN(c2c(F)c(N)c3c(=O)c(C(=O)O)cn(C4CC4)c3c2F)C[C@H](C)N1 [Compound 20, reference compound]
reported: 2.27
